# Tested System: Calmodulin-1 (Homo sapiens) (UniProt P0DP23)
# Method Notes: calcium-bound CALM1 binders on microarrays, profiling panel, artefact control for SMM control-protein annotation, biochemical, small-molecule microarray, Cy5-labelled CALM1, plus calcium (AID 1112);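 further: score merges spot fluorescence with signal to noise from triplicate slides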
# Study Conditions: Cy5-CALM1 binding fluorescence, higher = more signal
Consider the following molecules; for each one, report its composite z-score.
// print number alone

## Input Returns the measured composite z-score for the input molecule. Input: O=C1OCCC=C[C@H]2OC34C=CCN(Cc5ccccc5)C(=O)[C@H]3N(CCO)C(=O)[C@@H]4C12 (stereo not given in full)
## Output 0.681

## Input Returns the measured composite z-score for the input molecule. Input: COCCOC(=O)N1C(=O)[C@@]2(c3cc(C#CCNC(N)=O)ccc31)[C@H](c1ccc(OCCO)cc1)N1[C@H](c3ccccc3)[C@H](c3ccccc3)OC(=O)[C@H]1[C@@H]2C(=O)Nc1nc2ccccc2s1
## Output 0.701

## Input Returns the measured composite z-score for the input molecule. Input: COC(=O)C(CC#Cc1ccc2c(c1)[C@]1(C(=O)N2)[C@H](C(=O)N2CCCCCCC2)[C@H]2C(=O)O[C@H](c3ccccc3)[C@H](c3ccccc3)N2[C@@H]1c1ccc(O)cc1)C(=O)OC
## Output -0.236

## Input Returns the measured composite z-score for the input molecule. Input: COc1ccc(C(=O)Nc2ccc(CN3C(=O)[C@]4(O[C@H](CCn5cc(CCO)nn5)[C@@H]([Si](C)(C)c5ccc(OC)cc5)[C@@H]4C)c4ccccc43)cc2)cc1
## Output -0.0683

## Input Returns the measured composite z-score for the input molecule. Input: COc1cc2c(cc1OC)CN(C(=O)[C@@H]1[C@H]3C(=O)O[C@H](c4ccccc4)[C@H](c4ccccc4)N3[C@H](c3ccccc3OCCO)[C@@]13C(=O)Nc1ccccc13)CC2
## Output 0.234

The values you see were collected from PubChem BioAssay.
